- System: DAPK1;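 further: KINOMEscan kinase panel screen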
- conditions used: concentration: 1 μM, replicates: in singlicate; n = 1
Reported values of %Inh for individual entries
Please report the result as a number followed by the unit.

Illustrative cases are given below, each with its answer.
1) Cl.Nc1ncnc2occ(-c3ccc(NC(=O)Nc4cc(C(F)(F)F)ccc4F)cc3)c12 | 24%
2) Cl.Oc1cccc(Nc2ccnc3cc(-c4ccncc4)ccc23)c1 | 5%
3) CC(=O)Nc1ccc(COc2ccc(Nc3ccnc4cc(-c5ccccn5)ccc34)cc2)cc1.Cl | 0%
4) Fc1ccc(-c2ncn(CCCN3CCOCC3)c2-c2cccnc2)cc1 | 9%
5) CCCCCc1nc2c(N)ncnc2n1CCCCC | 0%
6) Cc1ccc(C(=O)NCC(N)=O)cc1-n1c(C)cc(OCc2ccc(F)cc2F)c(Br)c1=O | 0%
7) Fc1ccc(-c2ncn(CCCN3CCOCC3)c2-c2ccccn2)cc1 | 17%
8) CN1c2ccc(NCc3ccc(F)cc3)cc2-c2c(cnn2C)S1(=O)=O | 3%

Request: Return reported %Inh; argument: CN(C1=C(c2ccccc2)C(=O)NC1=O)c1ccccc1
Result: 26%

Request: Return reported %Inh; argument: Cc1cccc(Cn2ccn3c(=O)cc(N4CCOCC4)nc23)c1
Result: 9%

Request: Return reported %Inh; argument: Cc1c2ccc(N(C)c3ccnc(Nc4cccc(S(N)(=O)=O)c4)n3)cc2nn1Cc1ccccc1.Cl.Cl
Result: 0%

Request: Return reported %Inh; argument: O=C(NCCNc1ccnc(Nc2ccc(F)cc2)n1)c1cc2ccccc2s1
Result: 0%

Request: Return reported %Inh; argument: CCn1cnc2c(N)ncnc21
Result: 14%

Request: Return reported %Inh; argument: CN1c2ccc(CNc3ccc(F)cc3)cc2-c2c(cnn2C)S1(=O)=O
Result: 11%

Request: Return reported %Inh; argument: COCCNC(=O)c1ccc(-c2cc(C(=O)NC3CC3)cc(F)c2C)cc1
Result: 10%

Request: Return reported %Inh; argument: Cc1cn2c(=O)cc(N3CCOCC3)nc2n1Cc1cccc(Cl)c1Cl
Result: 13%

Request: Return reported %Inh; argument: N#Cc1c(N2CCOCC2)sc(-c2ccn[nH]2)c1-c1ccc(Cl)cc1
Result: 3%

Request: Return reported %Inh; argument: CCc1ccnc(/C=C/c2n[nH]c3cc(Sc4ccccc4C(=O)NC)ccc23)c1
Result: 17%

Request: Return reported %Inh; argument: O=C(NCCCN1CCOCC1)c1cccc(Nc2nccc(Nc3ccc(Oc4ccccc4)cc3)n2)c1
Result: 48%
